# Target Under Test: UniProt P20292
# Sequence (P20292 whole entry): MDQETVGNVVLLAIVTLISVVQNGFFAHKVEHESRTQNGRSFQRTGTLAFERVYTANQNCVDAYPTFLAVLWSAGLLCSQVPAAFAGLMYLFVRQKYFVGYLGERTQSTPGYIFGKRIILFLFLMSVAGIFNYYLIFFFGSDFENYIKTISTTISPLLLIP
# Assay Notes: Inhibition of FLAP in human leukocytes assessed as decrease in ionophore A23187-induced LT biosynthesis after 10 mins
# Format: cell-based
pIC50: −log10 of the molar value.
Attribute Measured: pIC50

| Smiles String | Attribute Measured | Val |
| --- | --- | --- |
| CC(C)c1ccc2c(c1)c(SC(C)(C)C)c(CC(C)(C)C(=O)O)n2Cc1ccc(Cl)cc1 | pIC50 | 6.99 |

---

Target sequence: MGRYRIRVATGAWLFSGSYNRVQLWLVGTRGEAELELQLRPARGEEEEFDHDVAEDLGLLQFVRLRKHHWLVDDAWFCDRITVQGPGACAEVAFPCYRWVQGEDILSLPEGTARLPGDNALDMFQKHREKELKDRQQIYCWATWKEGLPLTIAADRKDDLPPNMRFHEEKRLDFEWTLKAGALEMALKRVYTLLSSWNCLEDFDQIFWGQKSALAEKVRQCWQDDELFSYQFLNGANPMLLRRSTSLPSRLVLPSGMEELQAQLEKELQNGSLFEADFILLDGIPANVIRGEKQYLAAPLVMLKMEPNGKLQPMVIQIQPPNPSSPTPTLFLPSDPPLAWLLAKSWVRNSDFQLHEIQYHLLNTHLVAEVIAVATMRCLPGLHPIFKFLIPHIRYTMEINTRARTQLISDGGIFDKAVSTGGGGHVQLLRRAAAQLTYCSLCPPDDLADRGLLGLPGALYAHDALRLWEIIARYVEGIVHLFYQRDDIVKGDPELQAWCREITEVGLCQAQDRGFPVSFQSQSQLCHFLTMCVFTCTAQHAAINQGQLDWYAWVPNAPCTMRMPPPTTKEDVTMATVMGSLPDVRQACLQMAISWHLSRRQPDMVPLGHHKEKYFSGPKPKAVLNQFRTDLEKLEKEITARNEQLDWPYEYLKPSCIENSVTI
pIC50: −log10 of the molar value.
Attribute Measured: pIC50

| Smiles String | Attribute Measured | Val |
| --- | --- | --- |
| CC(C)=CCc1c(O)cc(-c2cc3ccc(O)cc3o2)cc1O | pIC50 | 6.68 |

---

# pIC50 listing for each entry below
# Assay Notes: Inhibition of LOX (unknown origin)
# Parameters: species or system Homo sapiens
pIC50: −log10 of the molar value.
Attribute Measured: pIC50

| Molecule | Attribute Measured | Val |
| --- | --- | --- |
| O=C(Cc1c[nH]c2ccccc12)NN=C(c1ccccc1)c1ccccc1 | pIC50 | 4.27 |
| CS(=O)(=O)c1ccc(-c2nc(SCCN(O)C(N)=O)nn2-c2ccc(Br)cc2)cc1 | pIC50 | 6.07 |
| O=C(O)CCCc1c[nH]c2ccccc12 | pIC50 | 4.75 |
| O=C(O)Cc1c[nH]c2ccccc12 [INDOLE-3-ACETIC ACID] | pIC50 | 4.37 |
